System: Fer (mouse)
Test: phosphorylation enrichment, bacterial display (enrichment ratio); higher = better substrate or ligand; peptides without Tyr show the background;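 note: 11-residue human phosphosite peptides and single-mutation variants displayed on the E. coli surface, counted by deep sequencing, each peptide's frequency after selection divided by its frequency in the unselected input library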;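 note: frequency after pTyr selection over input frequency; kinase dosed for 20-30% of maximal phosphorylation in three min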
property-measured: phosphorylation enrichment
Lab note: record just the number, no unit beside it.

Tell me its phosphorylation enrichment on Fer (mouse): YKRAVYCIIGR [NUP93_Y391]
0.505

Tell me its phosphorylation enrichment on Fer (mouse): RGFRVYFTPDS [PTPRF_Y450_YF]
0.469

Tell me its phosphorylation enrichment on Fer (mouse): AHAGEYGAVAL [HBA1_Y25_E28V]
0.672

Tell me its phosphorylation enrichment on Fer (mouse): GESKDYALHAG [SVIL_Y185_V189A]
0.366

Tell me its phosphorylation enrichment on Fer (mouse): AVRVFYRKCPR [EPHB2_Y194]
0.518

Tell me its phosphorylation enrichment on Fer (mouse): CEHRGYLFLAI [TEK_Y897_YF]
0.508

Tell me its phosphorylation enrichment on Fer (mouse): PYSEPYADYGG [APBA1_Y187]
1.34

Tell me its phosphorylation enrichment on Fer (mouse): YYSSEYHYVGG [CTSC_Y345]
4.51

Tell me its phosphorylation enrichment on Fer (mouse): LRSELYSLIAR [PHIP_Y16_F17S]
4.78

Tell me its phosphorylation enrichment on Fer (mouse): AVAFVYYKSIG [ADGRL4_Y301]
0.53

Tell me its phosphorylation enrichment on Fer (mouse): ISDDNYGRIRL [ARCN1_Y310_K309N]
1.32

Tell me its phosphorylation enrichment on Fer (mouse): HNLDYYKQTTN [FGFR3_Y648_K650Q]
0.585

Tell me its phosphorylation enrichment on Fer (mouse): LAGRFYALRSM [CKB_Y174_K177R_YF]
0.843

Tell me its phosphorylation enrichment on Fer (mouse): EPTPGYEVGQR [TSC2_Y1788]
0.545

Tell me its phosphorylation enrichment on Fer (mouse): SHLLRYLSWTV [CLCNKB_Y93]
0.478

Tell me its phosphorylation enrichment on Fer (mouse): ATRKAYGQALA [TKT_Y321]
0.36

Tell me its phosphorylation enrichment on Fer (mouse): ISGGGYRARPA [FGB_Y71]
0.312

Tell me its phosphorylation enrichment on Fer (mouse): ADARMYGVLLW [PLP1_Y207_P211L]
0.616

Tell me its phosphorylation enrichment on Fer (mouse): NLSVRYDSSLK [ABCC8_Y1353]
0.422

----------
Target: FGFR3 (UniProt P22607)
Sequence (P22607 whole entry, looked up): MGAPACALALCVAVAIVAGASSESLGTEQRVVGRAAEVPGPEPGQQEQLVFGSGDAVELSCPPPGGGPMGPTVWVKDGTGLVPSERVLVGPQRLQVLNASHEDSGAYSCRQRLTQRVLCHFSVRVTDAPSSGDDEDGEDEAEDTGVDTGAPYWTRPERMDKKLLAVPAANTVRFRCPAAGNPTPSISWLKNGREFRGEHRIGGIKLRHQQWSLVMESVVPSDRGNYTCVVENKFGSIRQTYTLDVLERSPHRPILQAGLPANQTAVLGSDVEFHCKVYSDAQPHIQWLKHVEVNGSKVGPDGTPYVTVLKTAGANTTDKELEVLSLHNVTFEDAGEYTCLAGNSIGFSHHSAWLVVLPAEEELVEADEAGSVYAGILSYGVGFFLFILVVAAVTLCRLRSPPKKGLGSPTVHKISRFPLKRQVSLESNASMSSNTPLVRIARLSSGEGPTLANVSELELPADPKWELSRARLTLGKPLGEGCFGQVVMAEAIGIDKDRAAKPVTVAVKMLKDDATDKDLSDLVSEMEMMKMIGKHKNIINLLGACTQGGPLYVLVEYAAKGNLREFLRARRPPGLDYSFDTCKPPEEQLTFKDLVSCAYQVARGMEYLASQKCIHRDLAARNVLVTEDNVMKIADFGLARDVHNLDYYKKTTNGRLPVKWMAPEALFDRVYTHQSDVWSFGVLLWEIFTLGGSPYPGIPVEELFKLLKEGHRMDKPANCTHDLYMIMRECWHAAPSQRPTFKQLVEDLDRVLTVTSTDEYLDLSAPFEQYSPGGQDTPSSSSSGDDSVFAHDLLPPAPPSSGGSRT
Assay: phosphorylation enrichment, bacterial display (enrichment ratio); higher = better substrate or ligand; peptides without Tyr show the background
Each entry gets N if its phosphorylation enrichment stays under 0.8, and Y if its phosphorylation enrichment is 0.8 or above.

Item KVGPGYLGSRG [RET_Y826_G830R] with phosphorylation enrichment of 0.8 or above?
N

Item CTTIHYNFMCN [TP53_Y234_Y236F] with phosphorylation enrichment of 0.8 or above?
N

Item DHFNQYEQQKM [CHD7_Y75_YF] with phosphorylation enrichment of 0.8 or above?
N

Item PYRFIYMAVQH [PTPN11_Y515_Q510P] with phosphorylation enrichment of 0.8 or above?
Y

Item DALDNYVIRGV [PCCA_Y473] with phosphorylation enrichment of 0.8 or above?
N

Item GTATTYLCGVK [ALPL_Y117_A116T] with phosphorylation enrichment of 0.8 or above?
N

Item RRIHSNRGHLW [VHL_Y112_Y112N] with phosphorylation enrichment of 0.8 or above?
N

Item FDCKWYIPLTD [BCR_Y756_YF] with phosphorylation enrichment of 0.8 or above?
Y

Item MIRSTYALGGL [CPS1_Y590_A589T] with phosphorylation enrichment of 0.8 or above?
N

Item KNNDGYIDFAE [MCFD2_Y135_YF] with phosphorylation enrichment of 0.8 or above?
N

Item VNYGAYINNFK [GLB1_Y488_D491N] with phosphorylation enrichment of 0.8 or above?
N

Item NLRQQYNSPQE [UMPS_Y432_G429R] with phosphorylation enrichment of 0.8 or above?
N

Item LLREWYVQDPF [SIX3_Y225_L226V_YF] with phosphorylation enrichment of 0.8 or above?
Y

Item VERIGYDFIPT [CBS_Y308_G305R] with phosphorylation enrichment of 0.8 or above?
N

Item `TENAGYYFQVS` with phosphorylation enrichment of 0.8 or above?
Y

Item NKEAICSGYIR [SMCHD1_Y283_Y283C] with phosphorylation enrichment of 0.8 or above?
N

Item SSSPTYLDLPF [GLI3_Y168_P169L] with phosphorylation enrichment of 0.8 or above?
Y

Item GGFTCCCDGKK [PROS1_Y266_Y266C_YF] with phosphorylation enrichment of 0.8 or above?
N

Item PLDGESFTLQI [TP53_Y327_Y327S] with phosphorylation enrichment of 0.8 or above?
Y
